tested on: SW1271 complex spheroids with HUVEC/MSC, growth, % test/control; assay: Anticancer human tumor SW1271 cell line growth inhibition [AhR]; conditions: second compound 10 µM; first compound 10 µM; active compounds read low;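 further: spheroids exposed to agents for 7 days before readout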
hey, just use 1.0 if measured viability, T/C is less than 20%, otherwise 0.0

Solved cases below.
For O=C(c1cc(Cc2n[nH]c(=O)c3ccccc23)ccc1F)N1CCN(C(=O)C2CC2)CC1 + CC(CO)NC(=O)c1cc(-c2ccc(Cl)cc2)nn(-c2cnn(C)c2)c1=O , is the recorded viability, T/C below the cut-off of 20%? 0.0

For Nc1ccccc1NC(=O)c1ccc(CNC(=O)OCc2cccnc2)cc1 + Cc1ccccc1N=Nc1ccc(NC(=O)c2ccnn2C)c(C)c1 , is the recorded viability, T/C below the cut-off of 20%? 0.0

For Nc1ccn(C2OC(CO)C(O)C2(F)F)c(=O)n1 (stereo unspecified) + Cc1ccccc1N=Nc1ccc(NC(=O)c2ccnn2C)c(C)c1 , is the recorded viability, T/C below the cut-off of 20%? 0.0

More entries:
For Nc1ccccc1NC(=O)c1ccc(CNC(=O)OCc2cccnc2)cc1 + Cc1cncc(-c2nc(NCCc3c[nH]c4ccccc34)c3ncn(C(C)C)c3n2)c1 , is the recorded viability, T/C below the cut-off of 20%? 1.0

For COc1ccc([C@@H](O)c2cc(-c3ncnc4cc(N5CCOCC5)ccc34)c(F)cc2Cl)nn1 + Cc1cncc(-c2nc(NCCc3c[nH]c4ccccc34)c3ncn(C(C)C)c3n2)c1 , is the recorded viability, T/C below the cut-off of 20%? 1.0

For CC1COCCN1c1cc(C2(S(C)(=N)=O)CC2)nc(-c2ccnc3[nH]ccc23)n1 (stereo unspecified) + Cc1ccccc1N=Nc1ccc(NC(=O)c2ccnn2C)c(C)c1 , is the recorded viability, T/C below the cut-off of 20%? 0.0

====

test system: SW1271 complex spheroids with HUVEC/MSC, growth, % test/control; test: Anticancer human tumor SW1271 cell line growth inhibition [AhR]; conditions: second compound 10 µM; first compound 0.1 µM; active compounds read low;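 further: spheroids exposed to agents for 7 days before readout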
Each item that follows carries a reported viability, T/C.
Reply with just the number (in %).

Which viability, T/C is reported for this compound? O=C(C=Cc1cccc(S(=O)(=O)Nc2ccccc2)c1)NO + Cc1ccccc1N=Nc1ccc(NC(=O)c2ccnn2C)c(C)c1 71.2

====

system: SW1271 complex spheroids with HUVEC/MSC, growth, % test/control; assay: Anticancer human tumor SW1271 cell line growth inhibition [AhR]; conditions: second compound 0.1 µM; first compound 0.001 µM; active compounds read low;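 further: spheroids exposed to agents for 7 days before readout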
Each item that follows carries a reported viability, T/C.
Reply with just the number (in %).

A selection of reference data follows.
Which viability, T/C is reported for this compound? CC[C@@]1(O)C(=O)OCc2c1cc1n(c2=O)Cc2cc3c(CN(C)C)c(O)ccc3nc2-1 + Cc1ccccc1N=Nc1ccc(NC(=O)c2ccnn2C)c(C)c1 98.9

Which viability, T/C is reported for this compound? Cn1ncnc1C1c2n[nH]c(=O)c3cc(F)cc(c23)NC1c1ccc(F)cc1 (stereo unspecified) + Cc1ccccc1N=Nc1ccc(NC(=O)c2ccnn2C)c(C)c1 120

Which viability, T/C is reported for this compound? CC[C@@]1(O)C(=O)OCc2c1cc1n(c2=O)Cc2cc3c(CN(C)C)c(O)ccc3nc2-1 + Cc1cncc(-c2nc(NCCc3c[nH]c4ccccc34)c3ncn(C(C)C)c3n2)c1 99.7

More entries:
Which viability, T/C is reported for this compound? Cn1ncnc1C1c2n[nH]c(=O)c3cc(F)cc(c23)NC1c1ccc(F)cc1 (stereo unspecified) + Cc1cncc(-c2nc(NCCc3c[nH]c4ccccc34)c3ncn(C(C)C)c3n2)c1 103

Which viability, T/C is reported for this compound? CC[C@@]1(O)C(=O)OCc2c1cc1n(c2=O)Cc2cc3c(CN(C)C)c(O)ccc3nc2-1 + CC(CO)NC(=O)c1cc(-c2ccc(Cl)cc2)nn(-c2cnn(C)c2)c1=O 91.3

Which viability, T/C is reported for this compound? Cn1ncnc1C1c2n[nH]c(=O)c3cc(F)cc(c23)NC1c1ccc(F)cc1 (stereo unspecified) + CC(CO)NC(=O)c1cc(-c2ccc(Cl)cc2)nn(-c2cnn(C)c2)c1=O 104

====

Each item that follows carries a reported viability, T/C.
test system: SW1271 complex spheroids with HUVEC/MSC, growth, % test/control; experiment: Anticancer human tumor SW1271 cell line growth inhibition [AhR]; details: second compound 10 µM; first compound 0.316 µM; active compounds read low;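 further: spheroids exposed to agents for 7 days before readout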
Reply with just the number (in %).

A selection of reference data follows.
Which viability, T/C is reported for this compound? Nc1ccn(C2OC(CO)C(O)C2(F)F)c(=O)n1 (stereo unspecified) + Cc1cncc(-c2nc(NCCc3c[nH]c4ccccc34)c3ncn(C(C)C)c3n2)c1 39.3

Which viability, T/C is reported for this compound? O=C(c1cc(Cc2n[nH]c(=O)c3ccccc23)ccc1F)N1CCN(C(=O)C2CC2)CC1 + Cc1ccccc1N=Nc1ccc(NC(=O)c2ccnn2C)c(C)c1 108

Which viability, T/C is reported for this compound? O=C(C=Cc1cccc(S(=O)(=O)Nc2ccccc2)c1)NO + Cc1ccccc1N=Nc1ccc(NC(=O)c2ccnn2C)c(C)c1 88.2

Which viability, T/C is reported for this compound? CC1COCCN1c1cc(-c2ccnn2C)c2ccnc(-c3ccn[nH]3)c2n1 (stereo unspecified) + Cc1ccccc1N=Nc1ccc(NC(=O)c2ccnn2C)c(C)c1 55.1

Which viability, T/C is reported for this compound? CC1COCCN1c1cc(C2(S(C)(=N)=O)CC2)nc(-c2ccnc3[nH]ccc23)n1 (stereo unspecified) + Cc1cncc(-c2nc(NCCc3c[nH]c4ccccc34)c3ncn(C(C)C)c3n2)c1 45.5

More entries:
Which viability, T/C is reported for this compound? Nc1ccn(C2OC(CO)C(O)C2(F)F)c(=O)n1 (stereo unspecified) + CC(CO)NC(=O)c1cc(-c2ccc(Cl)cc2)nn(-c2cnn(C)c2)c1=O 57.4

====

test system: SW1271 complex spheroids with HUVEC/MSC, growth, % test/control; test: Anticancer human tumor SW1271 cell line growth inhibition [AhR]; conditions: second compound 0.316 µM; first compound 1 µM; active compounds read low;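 further: spheroids exposed to agents for 7 days before readout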
Each item that follows carries a reported viability, T/C.

A selection of reference data follows.
Which viability, T/C is reported for this compound? Nc1ncn(C2CC(O)C(CO)O2)c(=O)n1 (configuration not stated) + Cc1cncc(-c2nc(NCCc3c[nH]c4ccccc34)c3ncn(C(C)C)c3n2)c1 95.1%

Which viability, T/C is reported for this compound? CC(C)c1c(-c2ccccc2)nc2c(C#N)c[nH]n2c1=O + Cc1ccccc1N=Nc1ccc(NC(=O)c2ccnn2C)c(C)c1 107%

Which viability, T/C is reported for this compound? NS(=O)(=O)OCC1CC(n2ccc3c(NC4CCc5ccccc54)ncnc32)CC1O (configuration not stated) + CC(CO)NC(=O)c1cc(-c2ccc(Cl)cc2)nn(-c2cnn(C)c2)c1=O 58.5%

Which viability, T/C is reported for this compound? Nc1ccccc1NC(=O)c1ccc(CNC(=O)OCc2cccnc2)cc1 + CC(CO)NC(=O)c1cc(-c2ccc(Cl)cc2)nn(-c2cnn(C)c2)c1=O 41.4%

Which viability, T/C is reported for this compound? O=C(c1cc(Cc2n[nH]c(=O)c3ccccc23)ccc1F)N1CCN(C(=O)C2CC2)CC1 + Cc1cncc(-c2nc(NCCc3c[nH]c4ccccc34)c3ncn(C(C)C)c3n2)c1 83.7%

More entries:
Which viability, T/C is reported for this compound? NS(=O)(=O)OCC1CC(n2ccc3c(NC4CCc5ccccc54)ncnc32)CC1O (configuration not stated) + Cc1cncc(-c2nc(NCCc3c[nH]c4ccccc34)c3ncn(C(C)C)c3n2)c1 100%

Which viability, T/C is reported for this compound? CC1(C)CCC(CN2CCN(c3ccc(C(=O)NS(=O)(=O)c4ccc(NCC5CCOCC5)c([N+](=O)[O-])c4)c(Oc4cnc5[nH]ccc5c4)c3)CC2)=C(c2ccc(Cl)cc2)C1 + Cc1ccccc1N=Nc1ccc(NC(=O)c2ccnn2C)c(C)c1 99.3%

Which viability, T/C is reported for this compound? O=C(C=Cc1cccc(S(=O)(=O)Nc2ccccc2)c1)NO + CC(CO)NC(=O)c1cc(-c2ccc(Cl)cc2)nn(-c2cnn(C)c2)c1=O 45.5%

Which viability, T/C is reported for this compound? COc1cc(C2c3cc4c(cc3C(OC3OC5COC(C)OC5C(O)C3O)C3COC(=O)C23)OCO4)cc(OC)c1O (configuration not stated) + Cc1cncc(-c2nc(NCCc3c[nH]c4ccccc34)c3ncn(C(C)C)c3n2)c1 53.8%

Which viability, T/C is reported for this compound? CC1(C)CCC(CN2CCN(c3ccc(C(=O)NS(=O)(=O)c4ccc(NCC5CCOCC5)c([N+](=O)[O-])c4)c(Oc4cnc5[nH]ccc5c4)c3)CC2)=C(c2ccc(Cl)cc2)C1 + Cc1cncc(-c2nc(NCCc3c[nH]c4ccccc34)c3ncn(C(C)C)c3n2)c1 88.4%

Which viability, T/C is reported for this compound? O=C(C=Cc1cccc(S(=O)(=O)Nc2ccccc2)c1)NO + Cc1ccccc1N=Nc1ccc(NC(=O)c2ccnn2C)c(C)c1 59.8%

Which viability, T/C is reported for this compound? Nc1ccn(C2OC(CO)C(O)C2(F)F)c(=O)n1 (configuration not stated) + CC(CO)NC(=O)c1cc(-c2ccc(Cl)cc2)nn(-c2cnn(C)c2)c1=O 50.3%
